Listing of entries alongside the reported Binding Signal (fold over 6E7 parental antibody).
Target: T1, human TREM2 (human) (UniProt Q9NZC2)
T1 sequence (looked up): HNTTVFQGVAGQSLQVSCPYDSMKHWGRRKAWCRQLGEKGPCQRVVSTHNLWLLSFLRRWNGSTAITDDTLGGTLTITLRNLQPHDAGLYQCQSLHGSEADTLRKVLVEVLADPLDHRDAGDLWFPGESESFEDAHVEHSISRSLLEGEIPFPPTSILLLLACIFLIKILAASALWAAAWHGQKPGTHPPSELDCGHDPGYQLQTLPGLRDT
Test: 2nd screen, 10 nM Ab
Express it in fold; write the number only.

Binder	Recorded measurement
6E7 variant V5 (antibody, V domains shown) VH: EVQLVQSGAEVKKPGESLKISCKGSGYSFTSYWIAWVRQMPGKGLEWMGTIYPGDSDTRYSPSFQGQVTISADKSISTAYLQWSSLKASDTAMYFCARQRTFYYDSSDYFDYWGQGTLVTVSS VL: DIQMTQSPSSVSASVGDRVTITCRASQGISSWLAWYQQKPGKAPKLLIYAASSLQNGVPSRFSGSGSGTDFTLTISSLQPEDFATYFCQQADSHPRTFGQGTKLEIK	2.84

Now look at this one.
What measured Binding Signal (fold over 6E7 parental antibody) goes with 6E7 variant V61 (antibody, V domains shown) VH: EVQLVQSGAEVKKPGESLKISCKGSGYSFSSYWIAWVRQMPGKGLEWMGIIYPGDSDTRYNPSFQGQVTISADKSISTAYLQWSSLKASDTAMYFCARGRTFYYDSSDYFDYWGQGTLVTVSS VL: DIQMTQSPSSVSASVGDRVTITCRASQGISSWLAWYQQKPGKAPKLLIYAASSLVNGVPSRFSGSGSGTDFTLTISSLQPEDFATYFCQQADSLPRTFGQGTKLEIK ?
5.22
